settings: [M+Na-2H]-; instrument: DT; single field, calibrated with Agilent tune mix (Agilent)
Field: collision cross section (N2). Provide a value for each of the compounds that follow.
Give the value in Å² but do not write Å² after it.

*Q* Report collision cross section (N2), nothing else, for this compound: CC(=O)N[C@@H](CCC(=O)O)C(=O)O [N-Acetyl-L-glutamate]
*A* 141

*Q* Report collision cross section (N2), nothing else, for this compound: OC[C@H]1O[C@H](OC2[C@@H](O)[C@H](O)C(O)[C@H](O)[C@@H]2O)[C@H](O)[C@@H](O)[C@H]1O (stereo partly drawn) [Galactinol]
*A* 168.98

*Q* Report collision cross section (N2), nothing else, for this compound: CNc1nc(=O)c2ncn([C@@H]3O[C@H](CO)[C@@H](O)[C@H]3O)c2[nH]1 [2-Methylguanosine]
*A* 166.02

*Q* Report collision cross section (N2), nothing else, for this compound: N[C@@H](Cc1cc(I)c(Oc2cc(I)c(O)c(I)c2)c(I)c1)C(=O)O [L-Thyroxine]
*A* 194.19

*Q* Report collision cross section (N2), nothing else, for this compound: O=C(COP(=O)(O)O)[C@H](O)[C@H](O)COP(=O)(O)O [D-Ribulose 1,5-bisphosphate]
*A* 150.9

*Q* Report collision cross section (N2), nothing else, for this compound: N[C@@H](Cc1cc(I)c(Oc2ccc(O)c(I)c2)c(I)c1)C(=O)O [Liothyronine]
*A* 185.23

*Q* Report collision cross section (N2), nothing else, for this compound: CN1c2c([nH]c(N)nc2=O)NCC1CNc1ccc(C(=O)N[C@H](CCC(=O)O)C(=O)O)cc1 (stereo partly drawn) [5-Methyltetrahydrofolate]
*A* 201.03

*Q* Report collision cross section (N2), nothing else, for this compound: O=C(O)CCCC(=O)C(=O)O [2-Oxoadipic acid]
*A* 129.65
